Listed here: compounds with reported Ki for Cholecystokinin receptor type A (Rattus norvegicus).
MEASUREMENT TYPE: Ki (nM)

COMPOUND | MEASUREMENT TYPE | VALUE OBSERVED
CC(C)CCN1C(=O)C(NC(=O)Nc2ccccc2)C(=O)N(c2ccccc2)c2ccc(Cl)cc21 (stereo not given) | Ki | 41.7
CC(C)CCN1C(=O)C(NC(=O)Nc2ccccc2)C(=O)N(c2ccccc2)c2ccc(F)cc21 (stereo not given) | Ki | 8.91
CC(C)CCN1C(=O)C(NC(=O)Nc2ccccc2)C(=O)N(c2ccccc2)c2cc(Cl)ccc21 (stereo not given) | Ki | 4.9
CC(C)CCN1C(=O)C(NC(=O)Nc2ccccc2)C(=O)N(c2ccccc2)c2cc(F)ccc21 (stereo not given) | Ki | 4.57
CC(C)CCN1C(=O)C(NC(=O)Nc2ccccc2)C(=O)N(c2ccccc2)c2cc(Cl)c(Cl)cc21 (stereo not given) | Ki | 9.77

====

- TESTED ON: Cholecystokinin receptor (Homo sapiens) (UniProt P32239+P32238)
- Sequence (P32238 whole entry, looked up): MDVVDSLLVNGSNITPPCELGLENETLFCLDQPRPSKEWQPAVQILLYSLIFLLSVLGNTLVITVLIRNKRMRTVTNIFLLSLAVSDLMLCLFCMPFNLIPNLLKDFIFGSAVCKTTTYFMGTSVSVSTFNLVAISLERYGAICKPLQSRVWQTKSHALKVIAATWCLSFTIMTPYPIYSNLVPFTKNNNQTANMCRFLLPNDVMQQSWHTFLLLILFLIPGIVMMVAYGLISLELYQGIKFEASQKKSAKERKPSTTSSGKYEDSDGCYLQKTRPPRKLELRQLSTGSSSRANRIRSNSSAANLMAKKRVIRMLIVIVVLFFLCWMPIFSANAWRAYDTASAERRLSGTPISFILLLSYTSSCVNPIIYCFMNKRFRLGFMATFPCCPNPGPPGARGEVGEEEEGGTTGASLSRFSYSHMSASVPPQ
- Sequence (P32239 whole entry, looked up): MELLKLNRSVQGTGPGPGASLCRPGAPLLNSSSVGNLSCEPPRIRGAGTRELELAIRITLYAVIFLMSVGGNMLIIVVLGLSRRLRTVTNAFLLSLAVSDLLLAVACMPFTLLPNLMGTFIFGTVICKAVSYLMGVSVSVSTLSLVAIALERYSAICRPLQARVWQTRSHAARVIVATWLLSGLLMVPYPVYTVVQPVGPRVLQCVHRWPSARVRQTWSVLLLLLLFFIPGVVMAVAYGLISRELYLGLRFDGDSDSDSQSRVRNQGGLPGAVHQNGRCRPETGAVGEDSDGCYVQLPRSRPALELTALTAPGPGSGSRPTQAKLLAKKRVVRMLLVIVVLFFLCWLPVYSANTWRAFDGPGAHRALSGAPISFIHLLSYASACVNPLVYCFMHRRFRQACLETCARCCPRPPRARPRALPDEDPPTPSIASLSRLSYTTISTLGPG
- MEASUREMENT NOTES: Selectivity was determined as the ratio for binding affinities of CCK-A receptor to CCK-B receptor
- Assay type: protein assay

MOLECULE | RESULT COMPARATOR | Ratio
CC(C)CCN1C(=O)C(NC(=O)Nc2ccccc2)C(=O)N(c2ccccc2)c2ccc(Cl)cc21 (stereo not given) | = | 23
CC(C)CCN1C(=O)C(NC(=O)Nc2ccccc2)C(=O)N(c2ccccc2)c2cc(F)ccc21 (stereo not given) | = | 49
CC(C)CCN1C(=O)C(NC(=O)Nc2ccccc2)C(=O)N(c2ccccc2)c2ccc(F)cc21 (stereo not given) | > | 110
CC(C)CCN1C(=O)C(NC(=O)Nc2ccccc2)C(=O)N(c2ccccc2)c2cc(Cl)ccc21 (stereo not given) | = | 195
CC(C)CCN1C(=O)C(NC(=O)Nc2ccccc2)C(=O)N(c2ccccc2)c2cc(Cl)c(Cl)cc21 (stereo not given) | = | 162
